method.notes: MTS cytotoxicity assay in H4-APP751 cells
condition.set: human
observation.type: IC50

[[record]]
structure_smiles_string = "O=C(O)[C@H](CC1CCC1)c1cc(Cl)c(OCC(F)(F)F)c(-c2ccc(C(F)(F)F)cc2)c1"
measured_value = "5.56 µM"


---

method.notes: MTS cytotoxicity assay in rat primary neocortical cultures
Format: cell-based
condition.set: CD, primary neocortical cultures from E17 rat embryos
observation.type: IC50 at 24 h

[[record]]
compound = "O=C(O)[C@H](CC1CCC1)c1cc(Cl)c(OCC(F)(F)F)c(-c2ccc(C(F)(F)F)cc2)c1 [EVP-0015962]"
observation_type = "IC50 at 24 h"
measured_value = "> 30 µM"


---

method.notes: Measured LogD
Assay type: physicochemical
observation.type: logD

[[record]]
compound = "O=C(O)[C@H](CC1CCC1)c1cc(Cl)c(OCC(F)(F)F)c(-c2ccc(C(F)(F)F)cc2)c1 [EVP-0015962]"
observation_type = "logD"
measured_value = 3.88


---

method.notes: Measurement of EVP-0015962 in brain (LC-MS/MS)
Assay type: in vivo, mouse
condition.set: male, mouse, brain (cerebellum), oral; Tg2576 mice, 20 mg/kg/day in food, 50 weeks
observation.type: concentration at 50 weeks (nM)

[[record]]
structure_smiles_string = "O=C(O)[C@H](CC1CCC1)c1cc(Cl)c(OCC(F)(F)F)c(-c2ccc(C(F)(F)F)cc2)c1"
unit_of_measure = "nM"
measured_value = 2500


---

method.notes: Measurement of EVP-0015962 in brain (LC-MS/MS)
Assay type: in vivo, mouse
condition.set: male, mouse, brain (cerebellum), oral; Tg2576 mice, 60 mg/kg/day in food, 50 weeks
observation.type: concentration at 50 weeks (µM)

[[record]]
structure_smiles_string = "O=C(O)[C@H](CC1CCC1)c1cc(Cl)c(OCC(F)(F)F)c(-c2ccc(C(F)(F)F)cc2)c1"
measured_value = 8.3


---

tested.system: UniProt:P23219
Sequence (P23219 24-599): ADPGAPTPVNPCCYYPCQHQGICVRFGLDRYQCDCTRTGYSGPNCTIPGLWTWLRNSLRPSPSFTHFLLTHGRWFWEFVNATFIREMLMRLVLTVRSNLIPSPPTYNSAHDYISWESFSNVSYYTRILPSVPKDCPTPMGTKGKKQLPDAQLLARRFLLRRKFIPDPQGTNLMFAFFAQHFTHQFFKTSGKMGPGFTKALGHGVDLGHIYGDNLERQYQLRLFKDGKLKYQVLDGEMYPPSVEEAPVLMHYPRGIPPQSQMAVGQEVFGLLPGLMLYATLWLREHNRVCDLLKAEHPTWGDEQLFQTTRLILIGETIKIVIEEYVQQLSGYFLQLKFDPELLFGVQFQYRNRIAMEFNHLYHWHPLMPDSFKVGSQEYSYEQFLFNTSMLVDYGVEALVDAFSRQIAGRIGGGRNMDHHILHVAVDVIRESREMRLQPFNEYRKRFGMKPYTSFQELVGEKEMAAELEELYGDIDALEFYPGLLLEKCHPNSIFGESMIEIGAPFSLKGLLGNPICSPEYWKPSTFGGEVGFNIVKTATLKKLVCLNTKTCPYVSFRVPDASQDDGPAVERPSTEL
method.notes: COX-1 enzyme assay (Cerep)
condition.set: human recombinant, arachidonic acid 4 μM
observation.type: IC50

[[record]]
molecule = "O=C(O)[C@H](CC1CCC1)c1cc(Cl)c(OCC(F)(F)F)c(-c2ccc(C(F)(F)F)cc2)c1 [EVP-0015962]"
measured_value = "> 10 µM"


Data credit: paper PMC3573960
